Each recorded value in this set is attributed to the supplement of paper PMC10567573.

B1: TRIM55 (parent)
chain: FQASNPYLPTRGGTTMASGGRFRC

Variants of: B1
Assay Details: protein stability index of a GFP-peptide fusion (GPS, HEK-293T) (PSI 1-6); higher = more stable;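 further: lentivirally expressed fusions sorted by FACS into six bins by GFP to DsRed ratio, PSI derived from sequencing read proportions per bin multiplied by bin number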
Run Conditions: c terminus: a fixed tail appended
Given measured protein stability index, output true (1) if it is greater than or equal to 2 and false (0) if not.

FQASNPYLPTRGGTTMASGGCFRC [R21C]    true (1)
FQASNPYLPTRGGTTMASGGRFRY [C24Y]    false (0)

Q: Form field: protein stability index at least 2? Entry: FQAVNPYLPTRGGTTMASGGRFRC [S4V]
Ans: true (1)

Q: Form field: protein stability index at least 2? Entry: FQASGPYLPTRGGTTMASGGRFRC [N5G]
Ans: false (0)

Q: Form field: protein stability index at least 2? Entry: FQAQNPYLPTRGGTTMASGGRFRC [S4Q]
Ans: false (0)
